biological target: human serum polyclonal antibodies; test: cross-interaction chromatography (CIC), column with human serum polyclonal IgG
property_label: IgG column RT (min)

INSERT INTO measurements (binder, units_symbol, endpoint_result) VALUES
  ('anti-human MCT1 antibody Ab17 (antibody, human IgG1, kappa, V domains shown) VH: QVQLVQSGAEVKKPGASVKVSCTVSGRSLTNIHLQWVRQAPGQGLEWMGFIRSSGNTEYNSEFKSRVTMTRDTSTSTVYMELSSLRSEDTAVYYCARNRWYHGTYYSPGYYVMDAWGQGTLVTVSS VL: EIVLTQSPGTLSLSPGERATLSCKGSQNIENYLAWYQQKPGQAPRLLIYNRHNLQTGIPDRFSGSGSGTDFTLTISRLEPEDFAVYYCYQYSDGYTFGGGTKVEIKR', 'min', 5.19),
  ('anti-human MCT1 antibody Ab7 (antibody, human IgG1, kappa, V domains shown) VH: QVQLVQSGAEVKKPGASVKVSCTVSGRSRTNYHLQWVRQAPGQGLEWMGFIRSSGNTEYNSEFKSRVTMTRDTSTSTVYMELSSLRSEDTAVYYCARNRWYHGTYYSPGYYVMDAWGQGTLVTVSS VL: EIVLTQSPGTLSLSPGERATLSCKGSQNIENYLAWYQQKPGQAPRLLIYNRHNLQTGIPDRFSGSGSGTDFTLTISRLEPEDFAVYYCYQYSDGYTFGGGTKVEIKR', 'min', 5.38),
  ('anti-human MCT1 antibody Ab10 (antibody, human IgG1, kappa, V domains shown) VH: QVQLVQSGAEVKKPGASVKVSCTVSGRSLTGYHLQWVRQAPGQGLEWMGFIRSSGNTEYNSEFKSRVTMTRDTSTSTVYMELSSLRSEDTAVYYCARNRWYHGTYYSPGYYVMDAWGQGTLVTVSS VL: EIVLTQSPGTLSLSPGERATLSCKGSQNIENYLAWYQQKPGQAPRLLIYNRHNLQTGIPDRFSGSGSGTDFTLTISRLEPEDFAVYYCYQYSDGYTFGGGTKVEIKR', 'min', 5.27);
